Below, each entry is listed alongside its reported Fret efficiency value (average value).
SUBJECT OF TEST: TRPV4-KCa2.3 complex (Mus musculus, UniProt P58391+Q9EPK8)
Construct: endogenous in cells
Sequence (Q9EPK8 whole entry): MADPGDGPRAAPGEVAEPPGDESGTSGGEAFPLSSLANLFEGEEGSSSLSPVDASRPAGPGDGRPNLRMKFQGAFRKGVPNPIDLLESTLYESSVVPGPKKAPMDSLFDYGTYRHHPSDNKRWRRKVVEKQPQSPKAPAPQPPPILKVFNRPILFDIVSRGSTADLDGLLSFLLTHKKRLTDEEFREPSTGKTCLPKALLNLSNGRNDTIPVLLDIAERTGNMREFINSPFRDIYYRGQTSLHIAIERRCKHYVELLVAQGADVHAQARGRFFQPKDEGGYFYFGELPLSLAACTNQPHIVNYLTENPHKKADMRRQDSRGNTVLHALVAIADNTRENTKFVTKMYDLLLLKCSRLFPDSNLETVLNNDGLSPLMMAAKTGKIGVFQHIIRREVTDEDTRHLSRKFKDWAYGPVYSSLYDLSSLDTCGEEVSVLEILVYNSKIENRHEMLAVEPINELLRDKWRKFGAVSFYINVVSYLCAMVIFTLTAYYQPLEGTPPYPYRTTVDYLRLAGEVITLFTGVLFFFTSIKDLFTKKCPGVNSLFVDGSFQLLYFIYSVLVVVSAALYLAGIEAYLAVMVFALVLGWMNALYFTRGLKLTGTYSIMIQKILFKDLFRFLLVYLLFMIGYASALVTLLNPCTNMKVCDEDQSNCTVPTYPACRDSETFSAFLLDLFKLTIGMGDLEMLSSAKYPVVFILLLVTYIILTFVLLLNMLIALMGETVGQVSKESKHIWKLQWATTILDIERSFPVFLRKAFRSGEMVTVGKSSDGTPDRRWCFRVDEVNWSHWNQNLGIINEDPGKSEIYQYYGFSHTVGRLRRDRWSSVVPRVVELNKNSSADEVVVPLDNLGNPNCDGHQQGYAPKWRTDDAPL
Sequence (P58391 whole entry): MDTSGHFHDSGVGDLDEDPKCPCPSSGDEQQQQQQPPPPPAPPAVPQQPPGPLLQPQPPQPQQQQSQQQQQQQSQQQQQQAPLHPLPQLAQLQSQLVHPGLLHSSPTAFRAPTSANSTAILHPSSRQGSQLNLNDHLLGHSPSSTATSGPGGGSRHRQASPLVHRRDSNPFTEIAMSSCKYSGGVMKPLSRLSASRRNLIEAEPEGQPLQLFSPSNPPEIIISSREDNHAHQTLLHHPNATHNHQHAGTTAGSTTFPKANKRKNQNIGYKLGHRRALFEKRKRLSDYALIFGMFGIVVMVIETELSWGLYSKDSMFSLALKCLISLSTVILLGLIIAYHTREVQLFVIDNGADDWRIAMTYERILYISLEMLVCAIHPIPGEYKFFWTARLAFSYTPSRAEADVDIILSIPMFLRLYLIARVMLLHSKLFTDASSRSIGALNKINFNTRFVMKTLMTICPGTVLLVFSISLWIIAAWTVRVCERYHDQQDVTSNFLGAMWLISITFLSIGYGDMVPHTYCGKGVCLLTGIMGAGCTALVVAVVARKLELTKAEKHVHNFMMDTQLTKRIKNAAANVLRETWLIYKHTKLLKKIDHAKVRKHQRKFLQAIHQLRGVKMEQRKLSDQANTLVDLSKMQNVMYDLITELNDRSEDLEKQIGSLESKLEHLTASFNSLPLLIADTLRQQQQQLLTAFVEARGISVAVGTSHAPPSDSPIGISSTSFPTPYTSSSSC
TEST DETAILS: In vitro coupling activity test (FRET, immunostained endothelial cells)
Assay type: cell-based, mice
DETAILS: endothelial cells, 10 μmol/L, 24 hours; higher value = higher degree of coupling

{"columns": ["MOLECULE", "Fret efficiency value (average value)"],
 "data": [
  ["O=C(NCCCNC(=O)C(c1ccccc1)c1ccccc1)c1nc(=O)c2ccccc2[nH]1 [JNC-440, reference compound]", 5.02],
  ["CCN1CCN(Cc2ccc(NC(=O)NCCCCC(=O)Nc3ccc(F)cc3)cc2)CC1 [Example 5]", 7.68],
  ["CCN1CCN(Cc2ccc(NC(=O)NCCCCCNC(=O)c3ccc(F)cc3)cc2)CC1 [Example 6]", 7.98],
  ["O=C(Cc1ccncc1)NCCCNC(=O)c1nc(=O)c2ccccc2[nH]1 [Example 1]", 6.06],
  ["O=C(NCCCNC(=O)c1nc(=O)c2ccccc2[nH]1)Nc1ccncc1 [Example 2]", 5.98],
  ["CCN1CCN(Cc2ccc(NC(=O)NCCCNC(=O)c3nc(=O)c4ccccc4[nH]3)cc2)CC1 [Example 3]", 5.62],
  ["CCN1CCN(Cc2ccc(NC(=O)NCCCCC(=O)Nc3ccccc3)cc2)CC1 [Example 4]", 8.15]
]}
